Source: patent US12134610B2

Biological target: human somatostatin receptor subtype 2 (Homo sapiens, UniProt P30874)
Construct: expressed in transfected cells
Sequence (P30874 whole entry): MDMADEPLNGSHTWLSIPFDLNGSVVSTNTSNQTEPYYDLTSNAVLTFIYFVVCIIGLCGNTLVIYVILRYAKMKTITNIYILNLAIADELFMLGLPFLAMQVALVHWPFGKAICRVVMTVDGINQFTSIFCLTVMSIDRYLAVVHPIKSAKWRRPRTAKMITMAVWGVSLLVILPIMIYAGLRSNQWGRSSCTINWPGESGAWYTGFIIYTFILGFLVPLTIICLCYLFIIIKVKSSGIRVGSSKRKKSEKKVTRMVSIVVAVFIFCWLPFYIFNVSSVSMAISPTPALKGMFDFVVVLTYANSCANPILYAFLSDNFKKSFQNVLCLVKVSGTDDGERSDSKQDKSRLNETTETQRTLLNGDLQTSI
Test: Functional cAMP assay for SSTR2 agonists (HTRF) in CHO-K1 cells
Assay type: cell-based
Details: CHO-K1 cells stably expressing human SST2, 20 min; read-out: hSST2 cAMP Avg EC50
Starred links: 1 amine or outer side, 2 acyl side, 3 side chain; linkers in the order of their positions; H or OH if unused. Non-standard residues stand in square brackets, D forms with d. Residues, ends and D or L forms follow the SMILES beside them. *: point of attachment. X1 = Cc1cc(F)cc(-c2cnc(NCCNC(=O)CCOCCC(=O)*)c(-c3nc4ccc(Cl)cc4[nH]3)c2N2CCC(N)CC2)c1; Dolaproine = CO[C@@H]([C@@H]1CCCN1)[C@@H](C)C(=O)O; Dil = CC[C@H](C)[C@H](NC)[C@@H](CC(=O)O)OC; PABC = O=C(OCc1ccc(N[*:1])cc1)[*:2]; X2 = C[C@@H](N*)[C@@H](O)c1ccccc1; Cit = NC(=O)NCCC[C@H](N)C(=O)O; NMeV = CN[C@H](C(=O)O)C(C)C
attribute_measured: EC50

• CC[C@H](C)[C@@H]([C@@H](CC(=O)N1CCC[C@H]1[C@H](OC)[C@@H](C)C(=O)N[C@H](C)[C@@H](O)c1ccccc1)OC)N(C)C(=O)[C@@H](NC(=O)[C@H](C(C)C)N(C)C(=O)OCc1ccc(NC(=O)[C@H](CCCNC(N)=O)NC(=O)[C@@H](NC(=O)CN2CCN(CC(=O)O)CCN(CC(=O)NCCNc3ncc(-c4cc(C)cc(F)c4)c(N4CCC(N)CC4)c3-c3nc4ccc(Cl)cc4[nH]3)CC2)C(C)C)cc1)C(C)C [Compound 33] = 0.63 nM
• CC[C@H](C)[C@@H]([C@@H](CC(=O)N1CCC[C@H]1[C@H](OC)[C@@H](C)C(=O)N[C@H](C)[C@@H](O)c1ccccc1)OC)N(C)C(=O)[C@@H](NC(=O)[C@H](C(C)C)N(C)C(=O)OCc1ccc(NC(=O)[C@H](CCCNC(N)=O)NC(=O)[C@@H](NC(=O)CCOCCOCCOCCOCCC(=O)NCCNc2ncc(-c3cc(C)cc(F)c3)c(N3CCC(N)CC3)c2-c2nc3ccc(Cl)cc3[nH]2)C(C)C)cc1C(=O)NCCN)C(C)C [Compound 50] = 0.15 nM
• CC[C@H](C)[C@@H]([C@@H](CC(=O)N1CCC[C@H]1[C@H](OC)[C@@H](C)C(=O)N[C@H](C)[C@@H](O)c1ccccc1)OC)N(C)C(=O)[C@@H](NC(=O)[C@H](C(C)C)N(C)C(=O)OCc1ccc(NC(=O)[C@H](C)NC(=O)[C@@H](NC(=O)CCOCCNCCNc2ncc(-c3cc(C)cc(F)c3)c(N3CCC(N)CC3)c2-c2nc3ccc(Cl)cc3[nH]2)C(C)C)cc1C(=O)NCCN)C(C)C [Compound 89] = 0.71 nM
• COc1cc2cc(c1Cl)N(C)C(=O)CC(OC(=O)[C@@H](C)N(C)C(=O)CCSC1CC(=O)N(CC3CCC(C(=O)NCCNc4ncc(-c5cc(C)cc(F)c5)c(N5CCC(N)CC5)c4-c4nc5ccc(Cl)cc5[nH]4)CC3)C1=O)[C@]1(C)OC1[C@@H](C)C1C[C@@](O)(NC(=O)O1)[C@H](OC)/C=C/C=C(\C)C2 (stereo partly shown) [Compound 6] = 0.22 nM
• CC[C@H](C)[C@@H]([C@@H](CC(=O)N1CCC[C@H]1[C@H](OC)[C@@H](C)C(=O)N[C@H](C)[C@@H](O)c1ccccc1)OC)N(C)C(=O)[C@@H](NC(=O)[C@H](C(C)C)N(C)C(=O)OCc1ccc(NC(=O)[C@H](CCCNC(N)=O)NC(=O)[C@@H](NC(=O)[C@H](CCC(N)=O)NC(=O)CCOCCC(=O)NCCNc2ncc(-c3cc(C)cc(F)c3)c(N3CCC(N)CC3)c2-c2nc3ccc(Cl)cc3[nH]2)C(C)C)cc1C(N)=O)C(C)C [Compound 112] = 0.16 nM
• Cc1cc(F)cc(-c2cnc(NC3CCN(C(=O)CCOCCOCCOCCOCCOCCOCCNC(=O)CN4CCN(CC(=O)O)CCN(CC(=O)O)CCN(CC(=O)O)CC4)CC3)c(-c3nc4cc(Cl)ccc4[nH]3)c2N2CCC(N)CC2)c1 [Compound 4] = 0.2 nM
• CC[C@H](C)[C@@H]([C@@H](CC(=O)N1CCC[C@H]1[C@H](OC)[C@@H](C)C(=O)N[C@H](C)[C@@H](O)c1ccccc1)OC)N(C)C(=O)[C@@H](NC(=O)[C@H](C(C)C)N(C)C(=O)OCc1ccc(NC(=O)[C@H](CCCNC(N)=O)NC(=O)[C@@H](NC(=O)[C@H](CCC(N)=O)NC(=O)CCOCCC(=O)NCCNc2ncc(-c3cc(C)cc(F)c3)c(N3CCC(N)CC3)c2-c2nc3ccc(Cl)cc3[nH]2)C(C)C)cc1)C(C)C [Compound 56] (X1-QV[Cit][PABC][NMeV]V[Dil][Dolaproine]-X2) = 0.23 nM
• CC[C@H](C)[C@@H]([C@@H](CC(=O)N1CCC[C@H]1[C@H](OC)[C@@H](C)C(=O)N[C@H](C)[C@@H](O)c1ccccc1)OC)N(C)C(=O)[C@@H](NC(=O)[C@H](C(C)C)N(C)C(=O)OCc1ccc(NC(=O)[C@H](C)NC(=O)[C@@H](NC(=O)[C@H](CCC(=O)O)NC(=O)CCOCCC(=O)NCCNc2ncc(-c3cc(C)cc(F)c3)c(N3CCC(N)CC3)c2-c2nc3ccc(Cl)cc3[nH]2)C(C)C)cc1C(=O)NCCN)C(C)C [Compound 116] = 0.1 nM
• CC[C@H](C)[C@@H]([C@@H](CC(=O)N1CCC[C@H]1[C@H](OC)[C@@H](C)C(=O)N[C@H](C)[C@@H](O)c1ccccc1)OC)N(C)C(=O)[C@@H](NC(=O)[C@H](C(C)C)N(C)C(=O)OCc1ccc(NC(=O)[C@H](CCCNC(N)=O)NC(=O)[C@@H](NC(=O)[C@H](CCC(=O)O)NC(=O)CCOCCOCCOCCOCCC(=O)NCCNc2ncc(-c3cc(C)cc(F)c3)c(N3CCC(N)CC3)c2-c2nc3ccc(Cl)cc3[nH]2)C(C)C)cc1C(=O)NCCN)C(C)C [Compound 47] = 0.091 nM
• CC[C@H](C)[C@@H]([C@@H](CC(=O)N1CCC[C@H]1[C@H](OC)[C@@H](C)C(=O)N[C@H](C)[C@@H](O)c1ccccc1)OC)N(C)C(=O)[C@@H](NC(=O)[C@H](C(C)C)N(C)C(=O)OCc1ccc(NC(=O)[C@H](C)NC(=O)[C@@H](NC(=O)CCOCCOCCOCCOCCC(=O)NCCNc2ncc(-c3cc(C)cc(F)c3)c(N3CCC(N)CC3)c2-c2nc3ccc(Cl)cc3[nH]2)C(C)C)cc1C(=O)NCCN)C(C)C [Compound 85] = 0.25 nM
